Values from BigSolDB 2.1

Details: in THF, 285 K
MEASURED_ATTRIBUTE: solubility (mole fraction)
Number only, no unit.

Reported solubility (mole fraction) ( O=C1C=CC(=O)N1c1cc(F)c(Br)c(F)c1 ) = 0.0148

====

Settings: in acetone, 319.55 K
MEASURED_ATTRIBUTE: solubility (mole fraction)
Just the number.

Field solubility (mole fraction) (entry O=C1C=CC(=O)N1c1cc(F)c(Br)c(F)c1 ) reads 0.019

====

Conditions: in acetonitrile, 302.45 K
MEASURED_ATTRIBUTE: solubility (mole fraction)
When you answer, write just the number.

solubility (mole fraction) reported for this molecule O=C1C=CC(=O)N1c1cc(F)c(Br)c(F)c1 : 0.004
